FYI, the data here is from paper PMC9312238.

# Tested on: Escherichia coli
# assayNotes: Agar diffusion assay, E. coli
# Assay type: cell-based
# testContext: Escherichia coli; inhibition zone diameter, six-mm disks soaked with 20 μM of compound; read-out: E. coli IZD (mm)
measurementName: zone of inhibition at 20 µM

Consider the reported zone of inhibition at 20 µM for these compounds:
compound: C[Se]c1ccc(NC(=O)CCC(=O)O)cc1
zone of inhibition at 20 µM: 10 mm
--
compound: Nc1ccc([Se]CC(=O)N[C@@H](Cc2c[nH]c3ccccc23)C(=O)O)cc1
zone of inhibition at 20 µM: 17 mm
--
compound: Nc1ccc([Se]CC(=O)Nc2ccccc2)cc1
zone of inhibition at 20 µM: 14 mm
--
compound: O=C(O)C=CC(=O)Nc1ccc([Se]CC(=O)Nc2ccccc2)cc1
zone of inhibition at 20 µM: 9 mm
--
compound: O=C(C[Se]c1ccc(N2C(=O)CCC2=O)cc1)Nc1ccccc1
zone of inhibition at 20 µM: 13 mm

For every listed record, write down its zone of inhibition at 20 µM.
1. O=C(O)CCC(=O)Nc1ccc([Se]CC(=O)Nc2ccccc2)cc1
2. CCOc1ccc(NC(=O)C[Se]c2ccc(N)cc2)cc1
3. CC1(C)S[C@@H]2[C@H](NC(=O)[C@H](N)c3ccccc3)C(=O)N2[C@H]1C(=O)O [Ampicillin, ampicillin, reference compound]
4. CN(C)C=Nc1ccc([Se]CC(=O)Nc2ccccc2)cc1

["12 mm", "10 mm", "23 mm", "8 mm"]

Item C[Se]c1ccc(NC(=O)C=CC(=O)O)cc1 with Escherichia coli - zone of inhibition at 20 µM? 15 mm

###

# System: Staphylococcus aureus
# assayNotes: Agar diffusion assay, S. aureus
# Assay type: cell-based
# testContext: zone of test compound / zone of standard (ampicillin) x 100
Rule: measured S. aureus A% (activity index) below 40% gets satisfied; anything equal to or greater than 40% gets not satisfied.

Solved cases (5 shown):
smi: CCOc1ccc(NC(=O)C[Se]c2ccc(N)cc2)cc1
category: not satisfied

smi: N#CC(C#N)=NNc1ccc([Se]CC(=O)Nc2ccccc2)cc1
category: satisfied

smi: Nc1ccc([Se]CC(=O)N[C@@H](Cc2c[nH]c3ccccc23)C(=O)O)cc1
category: not satisfied

smi: O=C(C[Se]c1ccc(N2C(=O)CCC2=O)cc1)Nc1ccccc1
category: not satisfied

smi: O=C(O)CCC(=O)Nc1ccc([Se]CC(=O)Nc2ccccc2)cc1
category: not satisfied

# check: S. aureus A% (activity index) < 40% for O=C(O)C=CC(=O)Nc1ccc([Se]CC(=O)Nc2ccccc2)cc1 not satisfied

Please let me know if CC1=NN(c2ccccc2)C(=O)C1=NNc1ccc([Se]CC(=O)Nc2ccccc2)cc1 shows S. aureus A% (activity index) below 40%. satisfied

Is it true that S. aureus A% (activity index) reported for O=C(C[Se]c1ccc(N2C(=O)c3ccccc3C2=O)cc1)Nc1ccccc1 is less than 40%? satisfied

Field: below-cutoff. Rule: recorded S. aureus A% (activity index) strictly less than 40%. Subject: Nc1ccc([Se]CC(=O)Nc2ccccc2)cc1 not satisfied

###

# assayNotes: DPPH radical scavenging bioassay
# Type: biochemical
# testContext: concentration decreasing absorbance by 50%
measurementName: IC50 (µM)
One number for each entry, in µM.

molecule: Nc1ccc([Se]CC(=O)N[C@@H](Cc2c[nH]c3ccccc23)C(=O)O)cc1
measurementName: IC50
assayValue: 24

If you can, please state the reported IC50 value of O=C1O[C@H]([C@@H](O)CO)C(O)=C1O [Vitamin C, Ascorbic acid, reference compound] . 19.2

###

# Test system: MCF-7 cells
# assayNotes: cells
# Assay type: cell-based, human
# testContext: therapeutic index, ratio of WI-38 IC50 to MCF-7 IC50
measurementName: MCF7 TI (IC50 WI-38 / IC50 MCF-7)
One number for each entry.

Reference set (3 entries):
molecule: Nc1ccc([Se]CC(=O)N[C@@H](Cc2c[nH]c3ccccc23)C(=O)O)cc1
systemTested: MCF-7 cells
MCF7 TI (IC50 WI-38 / IC50 MCF-7): 5
--
molecule: C[Se]c1ccc(NC(=O)C=CC(=O)O)cc1
systemTested: MCF-7 cells
MCF7 TI (IC50 WI-38 / IC50 MCF-7): 2.8
--
molecule: CC(=O)Nc1ccc([Se]CC(=O)Nc2ccccc2)cc1
systemTested: MCF-7 cells
MCF7 TI (IC50 WI-38 / IC50 MCF-7): 2

State the recorded MCF7 TI (IC50 WI-38 / IC50 MCF-7) for every item in the following list.
1. O=C(O)CCC(=O)Nc1ccc([Se]CC(=O)Nc2ccccc2)cc1
2. CN(C)C=Nc1ccc([Se]CC(=O)Nc2ccccc2)cc1
3. O=C(O)C=CC(=O)Nc1ccc([Se]CC(=O)Nc2ccccc2)cc1
4. O=C(C[Se]c1ccc(N2C(=O)CCC2=O)cc1)Nc1ccccc1
5. COc1cccc2c1C(=O)c1c(O)c3c(c(O)c1C2=O)C[C@@](O)(C(=O)CO)C[C@@H]3O[C@H]1C[C@H](N)[C@H](O)[C@H](C)O1 [Doxorubicin, doxorubicin, reference compound]

[3.2, 2.7, 1.3, 3.6, 1.6]

Would you mind listing MCF7 TI (IC50 WI-38 / IC50 MCF-7) for each of the following molecules?
1. CCOc1ccc(NC(=O)C[Se]c2ccc(N)cc2)cc1
2. C[Se]c1ccc(NC(=O)CCC(=O)O)cc1

[4, 0.7]

For MCF-7 cells, provide MCF7 TI (IC50 WI-38 / IC50 MCF-7) of Nc1ccc([Se]CC(=O)Nc2ccccc2)cc1 please. 4.6

###

# Tested on: Staphylococcus aureus
# assayNotes: Agar diffusion assay, S. aureus
# Type: cell-based
# testContext: zone of test compound / zone of standard (ampicillin) x 100
# Method: The antimicrobial activities of the OSe compounds were evaluated against C. albicans yeast, as well as E. coli and S. bacteria, employing the agar well diffusion assay. Furthermore, the MICs (in µM) were determined by the microdilution method according to the reported protocol. […] The antimicrobial activities of the OSe compounds were evaluated against C. albicans yeast as well as E. coli gram-negative and S. aureus gram-positive bacteria employing the agar well diffusion assay. […]
measurementName: S. aureus A% (activity index) (%)
Answers are plain numbers, in %.

Take a look at these entries with their results.
compound: CN(C)C=Nc1ccc([Se]CC(=O)Nc2ccccc2)cc1
assayValue: 43
//
compound: O=C(C[Se]c1ccc(N2C(=O)C=CC2=O)cc1)Nc1ccccc1
assayValue: 29

Give S. aureus A% (activity index) for all compounds that follow.
1. C[Se]c1ccc(NC(=O)CCC(=O)O)cc1
2. CC1(C)S[C@@H]2[C@H](NC(=O)[C@H](N)c3ccccc3)C(=O)N2[C@H]1C(=O)O [Ampicillin, ampicillin, reference compound]
3. C[Se]c1ccc(NC(=O)C=CC(=O)O)cc1

43
100
71

###

measurementName: melting point

smi: CC(=O)Nc1ccc([Se]CC(=O)Nc2ccccc2)cc1
melting point: 161 to 162 °C

smi: CCOc1ccc(NC(=O)C[Se]c2ccc(N)cc2)cc1
melting point: 136 to 137 °C

smi: O=C(CCl)Nc1ccc([Se]CC(=O)Nc2ccccc2)cc1
melting point: 184.8 °C

smi: O=CNc1ccc([Se]CC(=O)Nc2ccccc2)cc1
melting point: 143 to 144 °C

smi: O=C(C[Se]c1ccc(N2C(=O)CCC2=O)cc1)Nc1ccccc1
melting point: 159 to 161 °C

Hi team, please reply with melting point for each item in this list.
1. Nc1ccc([Se]CC(=O)N[C@@H](Cc2c[nH]c3ccccc23)C(=O)O)cc1
2. CC1=NN(c2ccccc2)C(=O)C1=NNc1ccc([Se]CC(=O)Nc2ccccc2)cc1
3. O=C(C[Se]c1ccc(N2C(=O)c3ccccc3C2=O)cc1)Nc1ccccc1
4. O=C(C[Se]c1ccc(N=Cc2ccccc2O)cc1)Nc1ccccc1
5. O=C(C[Se]c1ccc(N2C(=O)C=CC2=O)cc1)Nc1ccccc1

1: 154 to 156 °C; 2: 197 to 199 °C; 3: 261 to 262 °C; 4: 150.3 °C; 5: 169 to 170 °C

###

# System: WI-38 cells
# assayNotes: cells
# Assay type: cell-based, human
# testContext: Homo sapiens; MTT, 24 h incubation, normal WI-38 cells; read-out: WI38 IC50
measurementName: pIC50
Give bare numbers, as −log10 of the molar value.

smi: Nc1ccc([Se]CC(=O)Nc2ccccc2)cc1
systemTested: WI-38 cells
pIC50: 4.28

Provide reported pIC50 for each item, in the same order as listed.
1. O=C(O)C=CC(=O)Nc1ccc([Se]CC(=O)Nc2ccccc2)cc1
2. Nc1ccc([Se]CC(=O)N[C@@H](Cc2c[nH]c3ccccc23)C(=O)O)cc1
3. C[Se]c1ccc(NC(=O)C=CC(=O)O)cc1

[4.34, 4.55, 4.70]

For every item in the list below, what is its measured pIC50?
1. C[Se]c1ccc(NC(=O)CCC(=O)O)cc1
2. CC(=O)Nc1ccc([Se]CC(=O)Nc2ccccc2)cc1
3. O=C(C[Se]c1ccc(N2C(=O)CCC2=O)cc1)Nc1ccccc1
4. O=C(O)CCC(=O)Nc1ccc([Se]CC(=O)Nc2ccccc2)cc1

[4.65, 4.07, 4.21, 4.17]
